- measuredTarget: MAGL (Mus musculus (Mouse))
- Sequence (O35678 whole entry): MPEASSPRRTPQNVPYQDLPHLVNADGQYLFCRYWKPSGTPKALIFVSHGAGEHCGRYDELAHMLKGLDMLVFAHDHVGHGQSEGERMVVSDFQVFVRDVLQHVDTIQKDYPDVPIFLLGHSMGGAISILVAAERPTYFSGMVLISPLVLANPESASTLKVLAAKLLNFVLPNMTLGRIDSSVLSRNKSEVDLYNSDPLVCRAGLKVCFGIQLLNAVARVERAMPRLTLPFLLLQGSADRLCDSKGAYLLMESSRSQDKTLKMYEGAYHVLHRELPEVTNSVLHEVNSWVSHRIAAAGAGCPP
- protocolDetails: Competitive ABPP, % inhibition at 1 uM, MAGL
- Type: biochemical
Answer each item with its documented inhibition at 1 µM.

Completed entries (count: 3):
compound	inhibition at 1 µM
Cc1nc(-c2cccc(F)c2)ccc1CN1CCN(C(=O)OC(C(F)(F)F)C(F)(F)F)CC1 [Example 11e]	> 75%
CC1CN(C(=O)OC(C(F)(F)F)C(F)(F)F)CCN1C(c1ccc(Cl)cc1)c1ccc(Cl)cc1 (stereo not shown) [Example 2h]	25 to 75%
C[C@@H]1CN(Cc2ccc(N3CCOCC3)cc2F)CCN1C(=O)OC(C(F)(F)F)C(F)(F)F [Example 9k]	< 25%

I'd like to know its inhibition at 1 µM. The compound in question is Cc1cccc(-c2ccc(CN3CCN(C(=O)OC(C(F)(F)F)C(F)(F)F)CC3)c(C)n2)c1 [Example 11d]
> 75%
